Give measured pIC50 for each item. Keep answers brief.
- Target under test: AnKir1 (Anopheles gambiae, UniProt A0A075M2J8)
- Sequence (A0A075M2J8 1-555): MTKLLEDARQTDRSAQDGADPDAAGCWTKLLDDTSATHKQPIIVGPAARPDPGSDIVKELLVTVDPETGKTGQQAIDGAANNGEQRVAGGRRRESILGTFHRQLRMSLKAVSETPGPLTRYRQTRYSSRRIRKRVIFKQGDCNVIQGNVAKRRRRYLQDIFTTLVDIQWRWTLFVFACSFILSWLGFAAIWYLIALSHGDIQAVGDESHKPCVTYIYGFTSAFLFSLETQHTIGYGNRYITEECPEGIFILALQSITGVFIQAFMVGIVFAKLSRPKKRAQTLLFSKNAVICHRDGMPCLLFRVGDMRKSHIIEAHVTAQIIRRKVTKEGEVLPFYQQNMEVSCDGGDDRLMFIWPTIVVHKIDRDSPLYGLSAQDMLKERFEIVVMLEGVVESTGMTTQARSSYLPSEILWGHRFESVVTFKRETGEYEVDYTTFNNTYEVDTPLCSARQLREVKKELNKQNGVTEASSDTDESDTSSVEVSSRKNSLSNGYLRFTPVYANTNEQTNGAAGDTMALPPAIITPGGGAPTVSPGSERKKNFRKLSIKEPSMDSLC
- Procedure text: whole-cell patch clamp electrophysiology
- Format: cell-based
- Measurement parameters: whole-cell patch clamp, HEK-293T cells
Note: pIC50 values are expressed as the negative base-10 logarithm of concentration in M.

Measured pIC50, O=C(Cn1nc(C(F)(F)F)c2c1CCCC2)NC1CCC1 [VU937] : 4.53

Measured pIC50, O=C(Cn1ncc2c1CCOC2)N1CCCc2ccccc21 [VU730] : 6.14

Measured pIC50, O=C(Cn1nc(C(F)(F)F)c2c1CCCC2)N1CCCc2ccccc21 [VU041] : 6.30

###

- Target under test: AnKir1 (Anopheles gambiae, UniProt A0A075M2J8)
- Procedure text: thallium (Tl+) flux assay
- Assay type: cell-based
- Measurement parameters: means (n = 3), selectivity panel; read-out: IC50 μM (95% Cl)
Assay endpoint: IC50 (µM)
Respond numerically; units are µM and should not be typed.

Measured IC50, `O=C(Cn1nc(C(F)(F)F)c2c1CCCC2)N1CCCc2ccccc21` : 2.5

###

- Target under test: Kir6.2/SUR1 (Homo sapiens (Human), UniProt Q09428+Q14654)
- Sequence (Q14654 whole entry): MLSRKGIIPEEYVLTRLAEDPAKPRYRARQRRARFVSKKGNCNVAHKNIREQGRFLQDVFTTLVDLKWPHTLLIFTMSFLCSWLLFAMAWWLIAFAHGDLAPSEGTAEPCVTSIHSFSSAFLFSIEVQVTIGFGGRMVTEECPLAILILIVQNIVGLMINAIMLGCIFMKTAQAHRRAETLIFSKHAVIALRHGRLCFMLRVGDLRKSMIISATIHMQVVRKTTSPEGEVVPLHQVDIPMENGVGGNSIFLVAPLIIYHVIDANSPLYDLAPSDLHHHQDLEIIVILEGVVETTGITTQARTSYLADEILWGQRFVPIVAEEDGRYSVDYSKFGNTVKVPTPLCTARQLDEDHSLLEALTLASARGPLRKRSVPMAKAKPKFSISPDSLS
- Sequence (Q09428 whole entry): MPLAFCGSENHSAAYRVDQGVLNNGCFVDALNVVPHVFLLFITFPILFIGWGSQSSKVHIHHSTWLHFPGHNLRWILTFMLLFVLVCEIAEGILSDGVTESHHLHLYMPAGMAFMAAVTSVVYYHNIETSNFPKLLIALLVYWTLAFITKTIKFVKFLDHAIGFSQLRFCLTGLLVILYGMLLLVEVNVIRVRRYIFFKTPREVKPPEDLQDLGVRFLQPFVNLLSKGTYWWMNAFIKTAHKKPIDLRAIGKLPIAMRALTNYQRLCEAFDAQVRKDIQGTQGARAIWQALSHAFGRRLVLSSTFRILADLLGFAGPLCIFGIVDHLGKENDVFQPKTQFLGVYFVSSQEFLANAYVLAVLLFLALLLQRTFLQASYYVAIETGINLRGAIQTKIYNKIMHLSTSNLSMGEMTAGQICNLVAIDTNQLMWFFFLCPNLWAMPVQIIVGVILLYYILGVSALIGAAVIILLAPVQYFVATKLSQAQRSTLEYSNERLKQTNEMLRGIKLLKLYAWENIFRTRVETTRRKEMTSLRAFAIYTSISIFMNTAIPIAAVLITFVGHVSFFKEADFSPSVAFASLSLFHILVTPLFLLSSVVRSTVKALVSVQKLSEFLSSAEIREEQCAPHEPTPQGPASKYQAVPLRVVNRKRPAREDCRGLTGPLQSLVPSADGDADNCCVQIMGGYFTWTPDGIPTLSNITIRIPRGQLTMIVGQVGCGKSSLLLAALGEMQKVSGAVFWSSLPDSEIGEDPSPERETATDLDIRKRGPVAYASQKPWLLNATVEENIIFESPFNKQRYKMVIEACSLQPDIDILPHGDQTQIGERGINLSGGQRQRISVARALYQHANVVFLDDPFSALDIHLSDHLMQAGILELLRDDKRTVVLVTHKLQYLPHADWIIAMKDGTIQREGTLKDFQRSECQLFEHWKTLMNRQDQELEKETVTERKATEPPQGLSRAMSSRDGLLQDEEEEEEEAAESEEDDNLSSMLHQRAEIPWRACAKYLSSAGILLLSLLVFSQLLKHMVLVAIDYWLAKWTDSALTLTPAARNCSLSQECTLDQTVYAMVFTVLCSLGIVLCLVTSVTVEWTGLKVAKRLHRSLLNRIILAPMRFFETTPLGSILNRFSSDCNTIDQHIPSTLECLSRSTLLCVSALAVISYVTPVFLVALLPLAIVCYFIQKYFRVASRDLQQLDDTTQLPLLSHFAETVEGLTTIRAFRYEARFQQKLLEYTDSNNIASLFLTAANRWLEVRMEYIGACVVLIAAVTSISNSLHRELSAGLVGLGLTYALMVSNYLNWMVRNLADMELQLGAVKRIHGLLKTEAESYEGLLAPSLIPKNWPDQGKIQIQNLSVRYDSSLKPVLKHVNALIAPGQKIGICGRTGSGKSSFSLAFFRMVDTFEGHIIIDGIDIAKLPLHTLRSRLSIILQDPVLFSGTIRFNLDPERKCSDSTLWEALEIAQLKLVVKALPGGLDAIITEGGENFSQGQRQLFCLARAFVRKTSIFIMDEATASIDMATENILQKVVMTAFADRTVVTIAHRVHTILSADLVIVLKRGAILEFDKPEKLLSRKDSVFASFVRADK
- Procedure text: thallium (Tl+) flux assay
- Format: cell-based, mammalian
- Measurement parameters: means (n = 3); read-out: IC50 μM (95% Cl)
Assay endpoint: IC50

Measured IC50, O=C(Cn1nc(C(F)(F)F)c2c1CCCC2)N1CCCc2ccccc21 [VU041] : > 30 µM

###

- Target under test: AeKir1 (Aedes aegypti, UniProt L0EQS9)
- Sequence (L0EQS9 1-486): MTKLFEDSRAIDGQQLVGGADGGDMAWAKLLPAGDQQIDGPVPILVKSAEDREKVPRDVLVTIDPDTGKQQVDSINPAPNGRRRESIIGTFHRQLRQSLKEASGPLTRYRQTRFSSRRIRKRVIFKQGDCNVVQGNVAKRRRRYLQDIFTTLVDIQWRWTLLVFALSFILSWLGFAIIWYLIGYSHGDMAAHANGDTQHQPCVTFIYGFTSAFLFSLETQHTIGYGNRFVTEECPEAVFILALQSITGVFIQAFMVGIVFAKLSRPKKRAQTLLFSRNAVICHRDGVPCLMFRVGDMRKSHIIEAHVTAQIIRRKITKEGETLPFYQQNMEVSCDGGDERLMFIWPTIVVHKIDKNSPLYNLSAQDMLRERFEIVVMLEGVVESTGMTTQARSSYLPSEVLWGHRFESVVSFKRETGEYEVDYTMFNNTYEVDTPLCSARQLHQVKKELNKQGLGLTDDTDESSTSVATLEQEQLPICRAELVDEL
- Procedure text: thallium (Tl+) flux assay
- Type: cell-based
- Measurement parameters: means (n = 3); read-out: IC50 μM (95% Cl)
Assay endpoint: IC50 (µM)
Respond numerically; units are µM and should not be typed.

Measured IC50, `O=C(Cn1nc(C(F)(F)F)c2c1CCCC2)N1CCCc2ccccc21` : 1.7

###

- Target under test: Kir4.1 (Homo sapiens (Human), UniProt P78508)
- Sequence (P78508 whole entry): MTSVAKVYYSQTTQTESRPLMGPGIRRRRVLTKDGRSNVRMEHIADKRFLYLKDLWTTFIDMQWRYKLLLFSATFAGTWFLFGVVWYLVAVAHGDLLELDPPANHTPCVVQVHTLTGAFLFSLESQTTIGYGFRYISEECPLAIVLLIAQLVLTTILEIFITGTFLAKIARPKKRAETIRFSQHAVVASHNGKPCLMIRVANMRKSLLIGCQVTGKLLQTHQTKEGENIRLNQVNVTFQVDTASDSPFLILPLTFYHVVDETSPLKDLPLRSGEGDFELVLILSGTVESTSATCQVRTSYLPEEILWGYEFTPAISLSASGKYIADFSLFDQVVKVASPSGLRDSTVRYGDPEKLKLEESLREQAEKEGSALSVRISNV
- Procedure text: thallium (Tl+) flux assay
- Assay type: cell-based, mammalian
- Measurement parameters: means (n = 3); read-out: IC50 μM (95% Cl)
Assay endpoint: IC50

Measured IC50, O=C(Cn1nc(C(F)(F)F)c2c1CCCC2)N1CCCc2ccccc21 [VU041] : > 30 µM

###

- Target under test: hKir2.1 (Homo sapiens (Human))
- Sequence (P63252 whole entry): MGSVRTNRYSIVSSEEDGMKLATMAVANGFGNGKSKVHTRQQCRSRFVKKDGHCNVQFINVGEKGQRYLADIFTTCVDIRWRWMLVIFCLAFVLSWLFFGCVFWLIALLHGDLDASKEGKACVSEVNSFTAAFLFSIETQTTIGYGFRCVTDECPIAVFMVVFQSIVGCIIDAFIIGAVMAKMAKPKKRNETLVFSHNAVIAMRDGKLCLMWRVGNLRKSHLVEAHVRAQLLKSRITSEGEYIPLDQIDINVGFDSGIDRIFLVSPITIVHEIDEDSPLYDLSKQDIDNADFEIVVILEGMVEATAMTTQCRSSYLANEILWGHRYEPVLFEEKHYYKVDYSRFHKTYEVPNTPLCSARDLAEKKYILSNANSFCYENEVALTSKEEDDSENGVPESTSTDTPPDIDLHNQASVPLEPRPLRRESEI
- Procedure text: thallium (Tl+) flux assay
- Assay type: cell-based
- Measurement parameters: SAR libraries; read-out: hKir2.1 IC50
pIC50: −log10 of the molar value.
Assay endpoint: pIC50

Measured pIC50, O=C(Cn1nc(C(F)(F)F)c2c1CCCC2)N1CCCc2ccccc21 [VU041] : 4.95

Measured pIC50, O=C(Cn1nc(C(F)(F)F)c2c1CCCC2)N1CCCC(c2ccccc2)C1 (stereo not drawn) [Compound 12] : < 4.52

Measured pIC50, O=C1CCCc2c1ccn2CC(=O)N1CCCc2ccccc21 [Compound 4] : < 4.52

Measured pIC50, O=C(Cn1nc(C(F)(F)F)c2c1CCCC2)N1CCCC2CCCCC21 (stereo not drawn) [Compound 9] : < 4.52

Measured pIC50, CC1CC(C)CN(C(=O)Cn2nc(C(F)(F)F)c3c2CCCC3)C1 (stereo not drawn) [Compound 13] : < 4.52

Measured pIC50, O=C(Cn1ncc2c1CCOC2)N1CCCc2ccccc21 [VU730] : < 4.52
